// provenance: PubChem BioAssay AID1918942

system: 743489-274-T-PDC complex spheroid viability; assay: Anticancer human tumor 743489-274-T-PDC patient-derived renal cell carcinoma cell line growth inhibition; details: second compound 0.316 µM; first compound 0.949 µM; stronger effect = lower value
viability, T/C values, listed per item
Report as a plain number; the unit % is understood.

COMPOUND	TARGET	viability, T/C, %
COc1cc(C2c3cc4c(cc3C(OC3OC5COC(C)OC5C(O)C3O)C3COC(=O)C23)OCO4)cc(OC)c1O (stereo not given) + NC1CC1c1ccc(-c2cccc(O)c2)cc1	743489-274-T-PDC complex spheroid viability	74.6

Query: Consider the compound shown here: NS(=O)(=O)OCC1CC(n2ccc3c(NC4CCc5ccccc54)ncnc32)CC1O (stereo not given) + NC1CCC(NC2CC2c2ccccc2)CC1 What is its recorded viability, T/C?
Response: 146

Query: Try this compound next: COc1cc(C2c3cc4c(cc3C(OC3OC5COC(C)OC5C(O)C3O)C3COC(=O)C23)OCO4)cc(OC)c1O (stereo not given) + NC1CCC(NC2CC2c2ccccc2)CC1
Response: 91.7

###

tested on: 743489-274-T-PDC complex spheroid viability; assay: Anticancer human tumor 743489-274-T-PDC cell line growth inhibition; settings: second compound 10 µM; first compound 0.3 µM; stronger effect = lower value;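 further: spheroids exposed to compounds for 7 days before readout; 100% = DMSO vehicle control wells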
RECORDED_METRIC: viability, T/C (%)
Field: numeric (%). Do not append units.

Use these answered entries as a reference point.
> print(dat)
                                   molecule  reported.result
1  COc1cc(C2c3cc4c(cc3C(OC3OC5COC(C)OC5C(O)C3O)C3COC(=O)C23)OCO4)cc(OC)c1O (centres undefined) + NC1CCC(NC2CC2c2ccccc2)CC1              111
2  CCc1c2c(nc3ccc(O)cc13)-c1cc3c(c(=O)n1C2)COC(=O)[C@]3(O)CC + NC1CCC(NC2CC2c2ccccc2)CC1             48.5
3  O=C(C=Cc1cccc(S(=O)(=O)Nc2ccccc2)c1)NO + NC1CCC(NC2CC2c2ccccc2)CC1             74.9

Query: Could you share which viability, T/C value was measured for Nc1ncn(C2CC(O)C(CO)S2)c(=O)n1 (centres undefined) + NC1CC1c1ccc(-c2cccc(O)c2)cc1 ?
Response: 64

###

// viability, T/C lookup, one value per entry
tested on: 743489-274-T-PDC complex spheroid viability; assay: Anticancer human tumor 743489-274-T-PDC cell line growth inhibition; settings: second compound 10 µM; first compound 0.0316 µM; stronger effect = lower value;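 further: spheroids exposed to compounds for 7 days before readout; 100% = DMSO vehicle control wells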
State the value with its unit after it.

COMPOUND	viability, T/C
Nc1ncn(C2CC(O)C(CO)O2)c(=O)n1 (configuration not stated) + NC1CCC(NC2CC2c2ccccc2)CC1	131%
CC1COCCN1c1cc(-c2ccnn2C)c2ccnc(-c3ccn[nH]3)c2n1 (configuration not stated) + NC1CCC(NC2CC2c2ccccc2)CC1	129%
CC(C)c1c(-c2ccccc2)nc2c(C#N)c[nH]n2c1=O + NC1CC1c1ccc(-c2cccc(O)c2)cc1	130%
CC[C@@]1(O)C(=O)OCc2c1cc1n(c2=O)Cc2cc3c(CN(C)C)c(O)ccc3nc2-1 + NC1CC1c1ccc(-c2cccc(O)c2)cc1	77.6%
CC1(C)CCC(CN2CCN(c3ccc(C(=O)NS(=O)(=O)c4ccc(NCC5CCOCC5)c([N+](=O)[O-])c4)c(Oc4cnc5[nH]ccc5c4)c3)CC2)=C(c2ccc(Cl)cc2)C1 + NC1CC1c1ccc(-c2cccc(O)c2)cc1	109%
COc1ccc([C@@H](O)c2cc(-c3ncnc4cc(N5CCOCC5)ccc34)c(F)cc2Cl)nn1 + NC1CC1c1ccc(-c2cccc(O)c2)cc1	99.1%

Query: Can you look up the measured viability, T/C of CC1COCCN1c1cc(C2(S(C)(=N)=O)CC2)nc(-c2ccnc3[nH]ccc23)n1 (configuration not stated) + NC1CC1c1ccc(-c2cccc(O)c2)cc1 for me?
Response: 114%

Query: And then Cn1ncnc1C1c2n[nH]c(=O)c3cc(F)cc(c23)NC1c1ccc(F)cc1 (configuration not stated) + NC1CC1c1ccc(-c2cccc(O)c2)cc1 , what is it?
Response: 100%

Query: Please answer likewise for COc1cc(Nc2ncc3c(n2)-c2ccc(Cl)cc2C(c2c(F)cccc2OC)=NC3)ccc1C(=O)O + NC1CCC(NC2CC2c2ccccc2)CC1
Response: 105%
